# SYSTEM: wild-type EGFR (Homo sapiens (Human))
# Sequence (P00533 25-1210): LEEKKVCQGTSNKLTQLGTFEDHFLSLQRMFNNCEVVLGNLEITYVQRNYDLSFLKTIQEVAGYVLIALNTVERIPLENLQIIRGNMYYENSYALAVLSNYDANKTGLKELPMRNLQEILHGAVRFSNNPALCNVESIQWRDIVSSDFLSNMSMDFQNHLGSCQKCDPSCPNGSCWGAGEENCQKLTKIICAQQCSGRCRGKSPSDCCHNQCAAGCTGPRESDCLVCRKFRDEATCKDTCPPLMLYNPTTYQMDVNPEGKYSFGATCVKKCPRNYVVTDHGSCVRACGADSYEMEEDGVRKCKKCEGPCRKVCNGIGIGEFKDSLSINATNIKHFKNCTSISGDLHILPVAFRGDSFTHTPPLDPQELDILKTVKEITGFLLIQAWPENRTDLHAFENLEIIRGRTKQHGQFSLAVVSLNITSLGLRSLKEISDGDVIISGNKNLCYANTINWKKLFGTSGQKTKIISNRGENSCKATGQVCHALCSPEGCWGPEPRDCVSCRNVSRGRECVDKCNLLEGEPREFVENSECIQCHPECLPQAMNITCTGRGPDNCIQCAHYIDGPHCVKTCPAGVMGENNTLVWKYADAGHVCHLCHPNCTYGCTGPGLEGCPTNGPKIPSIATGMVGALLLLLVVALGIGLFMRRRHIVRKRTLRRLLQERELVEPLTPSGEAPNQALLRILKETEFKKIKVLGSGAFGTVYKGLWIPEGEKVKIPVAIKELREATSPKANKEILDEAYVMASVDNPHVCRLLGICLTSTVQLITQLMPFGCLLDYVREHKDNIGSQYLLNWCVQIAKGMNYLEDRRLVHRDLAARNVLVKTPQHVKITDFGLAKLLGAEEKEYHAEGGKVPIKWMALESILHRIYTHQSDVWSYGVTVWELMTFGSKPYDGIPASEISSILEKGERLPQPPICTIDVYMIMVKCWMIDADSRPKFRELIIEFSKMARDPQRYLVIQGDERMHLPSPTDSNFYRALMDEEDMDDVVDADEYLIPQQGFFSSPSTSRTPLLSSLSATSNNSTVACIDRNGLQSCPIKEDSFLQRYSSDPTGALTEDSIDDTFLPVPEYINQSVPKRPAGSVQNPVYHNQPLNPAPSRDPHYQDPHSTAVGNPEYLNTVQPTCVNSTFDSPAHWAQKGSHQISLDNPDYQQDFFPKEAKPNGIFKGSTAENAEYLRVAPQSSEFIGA
# TEST_DETAILS: In vitro EGFR kinase activity assay (Z'-Lyte);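 note: Ten-point dose series from 5.1×10^−11 to 1.0×10^−6 mol/L, kinase reaction 1.5 h at room temperature, then 1 h development cleaving unphosphorylated peptide, phosphopeptide as 100% phosphorylation control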
# Assay type: biochemical
# APPLIED_CONDITIONS: EGFR WT; read-out: Inhibitory activity on EGFR kinase (IC50, nM) WT
EXPERIMENTAL_ENDPOINT: IC50 (nM)

Recorded results for 5 compounds are shown here.
1) C=CC(=O)Nc1cccc(-n2c(=O)cnc3cnc(Nc4ccc(C(N)=O)cc4)nc32)c1 12.7
2) C=CC(=O)Nc1cccc(-n2c(=O)cnc3cnc(Nc4ccc(N(CC)CC)cc4)nc32)c1 23.1
3) C=CC(=O)Nc1ccc(-n2c(=O)cnc3cnc(Nc4ccc(N5CCOCC5)cc4)nc32)cc1 8010
4) C=CC(=O)Nc1ccc(-n2c(=O)cnc3cnc(Nc4ccccc4)nc32)cc1 16.1
5) C=CC(=O)Nc1cccc(-n2c(=O)cnc3cnc(Nc4ccc(N5CCCC5)cc4)nc32)c1 23.3

I: COc1ccc(Nc2ncc3ncc(=O)n(-c4cccc(NC(=O)/C=C/CN(C)C)c4)c3n2)cc1
II: C=CC(=O)Nc1cccc(-n2c(=O)cnc3cnc(Nc4ccc(NC(C)=O)cc4)nc32)c1
Data request: Recorded IC50 values differ for I and II ; which one is higher? // respond with label for picked entry
Data returned: I

I: C=CC(=O)Nc1cccc(-n2c(=O)cnc3cnc(Nc4ccc(N5CCCCC5)cc4)nc32)c1
II: C=CC(=O)Nc1ccc(-n2c(=O)cnc3cnc(Nc4ccc(OC)cc4)nc32)cc1
III: C=CC(=O)Nc1cccc(-n2c(=O)cnc3cnc(Nc4ccc(N5CCOCC5)cc4)nc32)c1
IV: CN(C)C/C=C/C(=O)Nc1ccc(-n2c(=O)cnc3cnc(Nc4ccccc4)nc32)cc1
Data request: // sort entries: IC50, high to low Field: ranking. Enter the labels in the order requested.
Data returned: IV, II, I, III

P: C=CC(=O)Nc1cccc(-n2c(=O)cnc3cnc(Nc4ccc(Cl)cc4)nc32)c1
Q: C=CC(=O)Nc1cccc(Nc2ncc3ncc(=O)n(-c4ccc(OC)cc4)c3n2)c1
Data request: Param pair: P , Q . Output: the one whose IC50 is numerically greater. Field: selected label. Fill in the label of the entry you choose.
Data returned: Q
(Q: 2000 nM, P: 67 nM)

a: COc1ccc(-n2c(=O)cnc3cnc(Nc4cccc(N)c4)nc32)cc1
b: C=CC(=O)Nc1cccc(-n2c(=O)cnc3cnc(Nc4ccc(N5CCN(C)CC5)cc4OC)nc32)c1
c: C=CC(=O)Nc1cccc(-n2c(=O)cnc3cnc(Nc4ccc(OC)cc4)nc32)c1
Data request: Output the entries ranked by IC50 from maximum down to minimum. Please respond with the labels ordered as the question requires.
Data returned: a, c, b
(a: 10600 nM, c: 10.6 nM, b: 3.67 nM)

Recorded values, source patent US9670213B2.
